# Tested on: HepG2
# method-description: cytotoxicity call (relative viability < 0.9)
# condition-info: 10 µM
The whole screen tested about 39,000 compounds, of which about 3,300 (8.5%) were called active. Many of the other results were omitted from the sample, so actives are more common in it than they were.
value-type: cytotoxicity call

O=C(/C=C/c1ccc(O)c(O)c1)O[C@@H]1C[C@](O)(C(=O)O)C[C@@H](OC(=O)/C=C/c2ccc(O)c(O)c2)[C@H]1O
inactive
C[C@H](CO)N1C[C@H](C)[C@@H](CN(C)Cc2ccc(C(=O)Nc3ccccc3N)cc2)Oc2c(NC(=O)Nc3ccc(C(F)(F)F)cc3)cccc2C1=O
inactive
C[C@@H]1CCCCO[C@@H](CN(C)C(=O)Cc2ccccc2)[C@H](C)CN([C@H](C)CO)C(=O)c2cc(NC(=O)Nc3ccccc3)ccc2O1
inactive

---

# Test system: HepG2
# method-description: cytotoxicity call (relative viability < 0.9)
# condition-info: 10 µM
The whole screen tested about 39,000 compounds, of which about 3,300 (8.5%) were called active. This is one part of a sample in which actives are shown more often than they occur.
value-type: cytotoxicity call

A selection of reference data follows.
CCS(=O)(=O)Nc1ccc2c(c1)C(=O)N(C)[C@H]1CC[C@@H](CC(=O)NCCOC)O[C@H]1CO2
inactive
COc1ccc(NC(=O)Nc2ccc3c(c2)C(=O)N([C@H](C)CO)C[C@H](C)[C@H](CN(C)C(=O)Nc2ccc4c(c2)OCO4)OCCCC[C@@H](C)O3)cc1
inactive
Cc1ccc(S(=O)(=O)Nc2ccc3c(c2)CC(=O)N([C@@H](C)CO)C[C@@H](C)[C@H](CN(C)Cc2ccc(-c4ccccc4)cc2)O3)cc1
inactive
C[C@@H]1CCCCO[C@@H](CN(C)C(=O)Nc2cccc3ccccc23)[C@H](C)CN([C@H](C)CO)C(=O)c2cc(NC(=O)CCC(F)(F)F)ccc2O1
inactive
COc1ccc(NC(=O)N(C)C[C@@H]2OCCCC[C@@H](C)Oc3ccc(NC(=O)c4ccccc4)cc3C(=O)N([C@@H](C)CO)C[C@@H]2C)cc1
inactive

IN: Please give the documented cytotoxicity call of C[C@@H]1CCCCO[C@H](CN(C)C(=O)Nc2ccc3c(c2)OCO3)[C@H](C)CN([C@H](C)CO)C(=O)c2cc(NC(=O)Nc3ccccc3)ccc2O1
OUT: inactive

IN: Note cytotoxicity call for the compound shown: Cc1ccc(S(=O)(=O)Nc2ccc3c(c2)CC(=O)N([C@H](C)CO)C[C@@H](C)[C@@H](CN(C)Cc2ccc(-c4ccccc4)cc2)O3)cc1
OUT: active

IN: Give the measured cytotoxicity call for C[C@@H]1CCCCO[C@@H](CN(C)C(=O)Nc2cccc3ccccc23)[C@@H](C)CN([C@H](C)CO)C(=O)c2cc(NC(=O)CCC(F)(F)F)ccc2O1
OUT: inactive

IN: Return cytotoxicity call for the following compound: C[C@H]1CN([C@@H](C)CO)C(=O)c2cccc(NC(=O)C3CCCCC3)c2O[C@@H]1CN(C)S(=O)(=O)c1cn(C)cn1
OUT: inactive

IN: Give the reported value of cytotoxicity call for this record: CC(C)NC(=O)N(C)C[C@H]1Oc2ccc(NC(=O)Cc3ccccc3)cc2CC(=O)N([C@H](C)CO)C[C@@H]1C
OUT: inactive

IN: Tell me measured cytotoxicity call for Cc1noc(C)c1NC(=O)Nc1cccc2c1O[C@@H](CN(C)S(=O)(=O)c1ccccc1)[C@H](C)CN([C@H](C)CO)C2=O please.
OUT: inactive

IN: State its cytotoxicity call for this compound: C[C@H]1CCCCO[C@H](CN(C)C(=O)Nc2cccc3ccccc23)[C@@H](C)CN([C@@H](C)CO)C(=O)c2cc(NC(=O)CCC(F)(F)F)ccc2O1
OUT: active

IN: Hello, please tell me recorded cytotoxicity call for this one: C[C@@H]1CCCCO[C@H](CN(C)C(=O)Nc2cccc3ccccc23)[C@@H](C)CN([C@H](C)CO)C(=O)c2cc(NC(=O)CCC(F)(F)F)ccc2O1
OUT: inactive

IN: Give the reported value of cytotoxicity call for this record: C[C@@H]1CCCCO[C@@H](CN(C)C(=O)Nc2ccc3c(c2)OCO3)[C@H](C)CN([C@H](C)CO)C(=O)c2cc(NC(=O)Nc3ccccc3)ccc2O1
OUT: active

IN: For C[C@@H]1CCCCO[C@H](CN(C)C(=O)Nc2cccc3ccccc23)[C@H](C)CN([C@@H](C)CO)C(=O)c2cc(NC(=O)CCC(F)(F)F)ccc2O1 , write its cytotoxicity call.
OUT: inactive

IN: Let me know recorded cytotoxicity call for Cc1ccc(S(=O)(=O)Nc2ccc3c(c2)CC(=O)N([C@H](C)CO)C[C@H](C)[C@@H](CN(C)Cc2ccc(-c4ccccc4)cc2)O3)cc1 , thanks.
OUT: active

IN: Return value of cytotoxicity call for input COc1ccc(NC(=O)N(C)C[C@@H]2OCCCC[C@H](C)Oc3ccc(NC(=O)Nc4ccc5c(c4)OCO5)cc3C(=O)N([C@@H](C)CO)C[C@H]2C)cc1 , no commentary.
OUT: inactive

IN: Output cytotoxicity call of Cc1ccc(S(=O)(=O)Nc2ccc3c(c2)CC(=O)N([C@H](C)CO)C[C@@H](C)[C@H](CN(C)Cc2ccc(-c4ccccc4)cc2)O3)cc1
OUT: active

IN: In one line, give reported cytotoxicity call of the entry C[C@H](CO)N1C[C@H](C)[C@@H](CN(C)C(=O)Nc2cccc3ccccc23)OCCCC[C@H](C)Oc2ccc(NC(=O)CCC(F)(F)F)cc2C1=O .
OUT: active

IN: Recall and state the measured cytotoxicity call for Cc1ccc(S(=O)(=O)Nc2ccc3c(c2)CC(=O)N([C@H](C)CO)C[C@H](C)[C@H](CN(C)Cc2ccc(-c4ccccc4)cc2)O3)cc1 .
OUT: active

IN: Give a short answer stating reported cytotoxicity call for COc1ccc(NC(=O)N(C)C[C@H]2OCCCC[C@H](C)Oc3ccc(NC(=O)Nc4ccccc4)cc3C(=O)N([C@@H](C)CO)C[C@@H]2C)cc1 .
OUT: inactive

IN: Let me know recorded cytotoxicity call for N=C(N)NCCS , thanks.
OUT: inactive

IN: Complete the entry with cytotoxicity call for COc1ccc(NC(=O)Nc2ccc3c(c2)C(=O)N([C@H](C)CO)C[C@H](C)[C@@H](CN(C)C(=O)Nc2ccc4c(c2)OCO4)OCCCC[C@H](C)O3)cc1
OUT: active

IN: Supply measured cytotoxicity call of COc1ccc(NC(=O)N(C)C[C@H]2OCCCC[C@H](C)Oc3ccc(NC(=O)c4ccccc4)cc3C(=O)N([C@H](C)CO)C[C@@H]2C)cc1 in your reply.
OUT: inactive

IN: Please give measured cytotoxicity call of the following entry: C[C@H]1CCCCO[C@@H](CN(C)C(=O)Nc2ccc3c(c2)OCO3)[C@@H](C)CN([C@@H](C)CO)C(=O)c2cc(NC(=O)Nc3ccccc3)ccc2O1
OUT: inactive

IN: Quick one: give measured cytotoxicity call for COc1ccc(NC(=O)N(C)C[C@H]2OCCCC[C@H](C)Oc3ccc(NC(=O)Nc4ccccc4)cc3C(=O)N([C@H](C)CO)C[C@@H]2C)cc1
OUT: inactive
